This section presents compounds with their documented LEC PXR values.
# target-or-test-system: PXR (Homo sapiens)
# Construct: expression construct for the full-length human receptor under investigation; expressed in transfected cells; host or cells: human U2-OS cells (ATCC HTB-96), stably transfected
# Sequence (O75469 whole entry): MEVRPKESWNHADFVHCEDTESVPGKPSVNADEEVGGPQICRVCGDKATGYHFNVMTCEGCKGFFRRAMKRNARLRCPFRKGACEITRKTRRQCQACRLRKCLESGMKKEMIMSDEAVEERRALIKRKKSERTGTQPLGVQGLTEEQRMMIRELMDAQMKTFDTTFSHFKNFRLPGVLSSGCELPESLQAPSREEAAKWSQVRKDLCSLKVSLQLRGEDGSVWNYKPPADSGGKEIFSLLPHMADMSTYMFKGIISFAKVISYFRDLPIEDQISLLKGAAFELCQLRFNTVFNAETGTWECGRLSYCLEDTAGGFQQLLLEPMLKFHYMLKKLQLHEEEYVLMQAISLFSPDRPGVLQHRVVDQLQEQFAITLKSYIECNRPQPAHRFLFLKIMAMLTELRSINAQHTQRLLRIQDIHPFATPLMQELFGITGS
# protocol-text: PXR CALUX reporter gene assay
# Format: cell-based
# test-settings: PC10, 24 h exposure
Report the value in Log M with no unit label.

// below: answered compounds
In [3]: df
Out[3]:
                                   compound  measurement_units  value_measured
0  CCCCN(CCCC)C(=O)CCC(=O)N(CCCC)CCCC [TBSA, N,N,N′,N′‐tetrabutylsuccindiamide]              Log M            −6.1
1  CCCCN1CCCC1=O [NBP, N‐Butylpyrrolidinone, reference compound]              Log M            −3.2
2  CCCCN(CC)C(=O)CCC(=O)N(CC)CCCC [EBSA, N,N′‐diethyl‐N,N′‐dibutylsuccindiamide]              Log M            −5.0

So, CCCCN(C)C(=O)CCC(=O)N(C)CCCC [MBSA, N,N′‐dimethyl‐N,N′‐dibutylsuccindiamide] ? Its LEC PXR was −3.9

* * *

# System: human U2-OS cells
# protocol-text: CALUX cytotoxicity assay
# Format: cell-based
# test-settings: PC20, 24 h exposure
property-name: LEC cytotoxicity (Log M)
Report the value in Log M with no unit label.

In [3]: df
Out[3]:
                                   molecule  value_measured
0  CCCCN(CC)C(=O)CCC(=O)N(CC)CCCC [EBSA, N,N′‐diethyl‐N,N′‐dibutylsuccindiamide]            −3.1
1  CCCCN1CCCC1=O [NBP, N‐Butylpyrrolidinone, reference compound]            −2.1
2  CCCCN(C)C(=O)CCC(=O)N(C)CCCC [MBSA, N,N′‐dimethyl‐N,N′‐dibutylsuccindiamide]            −2.3
3  CN1CCCC1=O [NMP, N‐methyl‐2‐pyrrolidone, reference compound]            −1.4

Proceed to the following item.
So, CCCCN(CCCC)C(=O)CCC(=O)N(CCCC)CCCC [TBSA, N,N,N′,N′‐tetrabutylsuccindiamide] ? Its LEC cytotoxicity was −3.4

* * *

# Tested on: Nrf2
# protocol-text: Nrf2 CALUX assay (oxidative stress)
# Format: cell-based, human
# Parameters: key: –: no effect observed up to the highest test concentration
# test-settings: cell signaling pathway assay, 24 h exposure
property-name: LEC Nrf2

In [3]: df
Out[3]:
                                   molecule  value_measured
0  CCCCN(CCCC)C(=O)CCC(=O)N(CCCC)CCCC [TBSA, N,N,N′,N′‐tetrabutylsuccindiamide]               –
1  CCCCN1CCCC1=O [NBP, N‐Butylpyrrolidinone, reference compound]               –
2  CN1CCCC1=O [NMP, N‐methyl‐2‐pyrrolidone, reference compound]               –
3  CCCCN(CC)C(=O)CCC(=O)N(CC)CCCC [EBSA, N,N′‐diethyl‐N,N′‐dibutylsuccindiamide]               –

So, CCCCN(C)C(=O)CCC(=O)N(C)CCCC [MBSA, N,N′‐dimethyl‐N,N′‐dibutylsuccindiamide] ? Its LEC Nrf2 was −2.9 Log M
